The measured values listed here are drawn from the nanobody polyreactivity screen of Harvey et al. (2022).

# measurement notes: yeast display, Sf9 membrane polyspecificity reagent, FACS + sequencing; frameworks hold sequencing errors
quantity: polyreactivity (PSR sort gate)

>>> endpoint_result("QVQLVESGGGLVQAGGSHRLSCAASGIIFYRNAMGWYRQAPGKEREFVAAISSSGTNTYYADSVKGRFTISRDNAKITVYLQMNSLKPEDTAVYYCNADPDDGYFSDFDYWGQGTQVTVSS")
"low polyreactivity"
>>> endpoint_result("QVQLVESGVCLVQAGGSLRLSCAASGSTYTYAMGWYRQAPGKERELVADITQSGGSTYYADSVKGRFTISRDNAKKTVYLQMNTLKPEDTAVYYCNAESRHVFEDEYWGQGTQVTVSS")
"low polyreactivity"
>>> endpoint_result("QVQLVESGGGLVQAGGSLRLSCAASGSTFAYNDMGWYRQAPGKERELVADIRSGGNTNYADSVKGRFTISRDNAKNTVYLQMNSLKPEDTAVYYCASDGYRIDVYHPDYRYDYWGQGTQVTVSS")
"low polyreactivity"
>>> endpoint_result("QVQLVESGGGLVQAGGSLRLSCAASGFTFLWYAMGWYRQAPGKERELVAGISSDGSTYADSVKGRFTISRDNAKNTVYLQMNSLKQEDTAVYYCAAVNNSSIRDNDYWGQGTQVTVSS")
"low polyreactivity"
>>> endpoint_result("QVQLVESGGGLVQAGGSLRLSCAASGRIFHHNAMVSYRQAPGKEMELVATITWSGGRTYYADSVKGRFTISRDNAKNTVYLQMNSLKPEDTAVYYCAASSYSYYGYRSYQSTYYYWGQGTQVTVSS")
"low polyreactivity"
>>> endpoint_result("QVQLVESGGGLVQAGGSLRLSCAASGRIFVDYAMGWYRQAPGKERELVAAIRSSGGSTYYADSVKGRFTISRDNAKNTVYLQMNSLKPEDTAVYYCNTPKYLRASSGYNYWGQGTQVTVSS")
"high polyreactivity"
>>> endpoint_result("QVQLVESGGGLVQAGGSLRLSCAASGSIFWTNAMGWYRQAPGKERELVAAIRVSTGSTYYADSVKGRFTISRDNAKNTVYLQMNSLKPEVTAVYYFAARTYGWGYDYWGQGTQVTVSS")
"low polyreactivity"
>>> endpoint_result("QVQLVESGGGLVQAGGSLRLSCAASGSIFDHYARGWYRQAPGKDRELVAAISRSAGSTYYADSVKGRFTISRDHAKNTVYLQMNSLKPEDTAVYYCAADGKYYHRRPGWPIYDYWGQGTQVTVSS")
"high polyreactivity"
>>> endpoint_result("QVQLVESGGGLVQAGGSLRLSCAASGRIFRVYAMGWYRQAPGKERELVAAISSYGGSTYYADSVKGRFTISRDNAKNTVYLQMNSLIPEDTAVYYCAAESSPDGYFLSDYWGQGTQVTVSS")
"low polyreactivity"
>>> endpoint_result("QVQLVESGGGLVQAGGSLRLSCAASGRTFWYYTMGWYRQAPGKERELVAAITRRGGSTYYADSVKGRFTISRDNAKNTVYLQMNSLKPEDTAVYYCARGGSRLTQGWLVTPYDYDYWGQGTQVTVSS")
"high polyreactivity"
>>> endpoint_result("QVQLVESGGGLVQAGGSLRLSCAASGFISTINVMGCYRQAPGKERELVAAITYIDGSTFYADSVKGRFTISRDNAKNTVYFQMNSLKPEDTAVYYCASDLYLWGAVFLYVRSTGLDYWGQGTQVTVSS")
"low polyreactivity"
>>> endpoint_result("QVQLVESGGGLVQAGGSLRLSCAASGIIFYGYVMGWYRQAPGKERELVATSTSSGGSTYYADSVKGRFTISRDNAKNTGYLQMNSLKPEDTAVYYCAADYDYGAWVRHDYWGQGTQVTVSS")
"low polyreactivity"
>>> endpoint_result("QVQLVESRGGLVQAGGSLRLSCAASGRTFAVYALGWYRQAPGKEWELVAAITLGASRTYYADSVKGRFTISRDNAKNTVYLQMNSLKPEDTAVYSCNAVGRRNVDSSLNDYWGQGTQVTVSS")
"low polyreactivity"
>>> endpoint_result("NVQLVESGGGLVQAGGSLRLSCAASGSTFDYYDMGWYRQAPWKERELVATITSGGSTNYADSVKGRFTITRDNAKNTVYLLMHSLKPEDTAVYYCDARIRSVVPFDMDYWGQGTQVTVSW")
"low polyreactivity"
>>> endpoint_result("QVQLVESGGGLVQAGGSLRLSCAASGNIFAWYAMGWYRQAPGKERELVADISSRGGSTYYADSVKGRFTISRDNAKITVYLQMNSLKPEDSAVYYCAAVWYWTQDYDYWGLGTQVTVSS")
"low polyreactivity"
>>> endpoint_result("QVQLEESGGGLVQAGGRLRLSCAASGRIIYGYAMGWYRQAPGKERELVAAITATYYADSVKGRFTISRDNAKNTVYLQMNSLKPEDTAVYYCYAYLSPKQPLSPPDPTFEGGYWGQGTQVTVSS")
"low polyreactivity"
>>> endpoint_result("QVQLVESGGGLVQAGGSLRLSCAASGSTLYPYAMGWYRQAPGKERELVAVITLRGGSTYYADSVKGRFTISRDNAKNTVYLQMNSLKPEDTAVYYCATGNSKGRRTVRYGYWGQGTQVTVSS")
"high polyreactivity"
>>> endpoint_result("QVQLVESGGGLVQAGGSLRLSCAASGLIFTYYAMGWYRQAPGKERELVAAINYSGGSTYYADSVKGRFTISRDNAKNTVYLQMNSLKPEDTAVYYCAARRVTQTEGPMGYWGQGTQVTVSS")
"low polyreactivity"
>>> endpoint_result("QVQLVESGGGLVQAGGSLRLSCAASGFIFSGYAMGWYRQAPGKEREVVATISRGGSTTYYADSVKGRFTISRDNAKNTVYLQKTSLKPEETGAYYCATVGYPYRPVYIRRPYRYNSWGQGTQVTVSS")
"high polyreactivity"
>>> endpoint_result("QVQLVESGGGLVQAGGSLRLSCAASGSTSVVNARGWSRPAPGKERELVAAISTGGASTYYADSVKGRYTISRDNAKNTVYLQMNSLKPEDTAVYYCAADLGYEYDYWGQCTQVTVSS")
"high polyreactivity"
>>> endpoint_result("QVQLVESGGGLVQAGGSLRLSCASSGSTFEANAMGWYRQAPGKERELVAVITWTGGSTYYADSVKGRFTISRDNAKNTLYLQMNSLKPEDTAVYYCDADGVVPGRFFWPAHEYEYWGQGTQGTVSS")
"low polyreactivity"
